- Protocol Details: E. coli acrAB mutant growth effects, primary screen, E. coli filamentation inducers, strain DRC39, OD650, 48 h (AID 1179);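 note: screen aims at cell division blockers that make cells filament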
- Test Conditions: E. coli DRC39 delta-acrAB growth, higher = more signal, called active from +8 up or from −8 down
The entries below come with measured z-score values attached.
Assay Endpoint: z-score

[[record]]
compound = "CN(C)CCCNC(=O)[C@@]1(c2ccc([N+](=O)[O-])cc2)CC(=O)N(C2CCCCC2)[C@@H]1c1ccc(CO)cc1I"
assay_result = -1.28

[[record]]
compound = "CC(C)(C)OC(=O)CC[C@]1(C(=O)NCC(O)CO)COC(c2ccc(OCCCO)cc2)=N1 (some centres not stated)"
assay_result = 0.0752

[[record]]
compound = "O=C1[C@H]2C=C(Br)[C@H](C[C@@H]2OCCCCO)[C@@]12CO2"
assay_result = -0.808

[[record]]
compound = "C=C(C)C1C(=C)CN([C@H](CO)c2ccccc2)C1=O (some centres not stated)"
assay_result = -0.829

[[record]]
compound = "COCCOC(=O)N1C(=O)[C@@]2(c3cc(C#Cc4ccc(OC)cc4)ccc31)[C@H](c1ccc(O)cc1)N1[C@H](c3ccccc3)[C@H](c3ccccc3)OC(=O)[C@H]1[C@@H]2C(=O)NC[C@H](O)c1ccccc1"
assay_result = -0.206

[[record]]
compound = "CCOC(=O)[C@H]1C/C=C/C[C@H](C(=O)OCC)C(=O)O[C@H]2[C@@H](OC)O[C@H](CO)[C@@H](OC(=O)Nc3ccc(C#N)cc3)[C@@H]2OC1=O"
assay_result = 1.58

[[record]]
compound = "[N-]=[N+]=NCc1ccccc1[C@H]1OC(c2ccc(OCCCO)cc2)=N[C@@]1(Cc1ccccc1)C(=O)NCc1ccccc1"
assay_result = 0.0009

[[record]]
compound = "CCOC(=O)C[C@H]1[C@H](OC(=O)c2cc3ccccc3oc2=O)[C@@H](NC(=O)Cc2ccc(OC)cc2)c2cc(OCCCO)ccc2N1C(=O)c1ccccc1"
assay_result = -0.784

[[record]]
compound = "COCCCNC(=O)[C@@]1(Cc2ccccc2N=[N+]=[N-])N=C(c2ccc(OCCCO)cc2)O[C@H]1c1ccccc1N=[N+]=[N-]"
assay_result = -0.607

[[record]]
compound = "[N-]=[N+]=Nc1ccccc1[C@H]1OC(c2ccc(OCCCO)cc2)=N[C@@]1(Cc1ccccc1)C(=O)O"
assay_result = 0.534

[[record]]
compound = "COc1ccc([Si](C)(C)[C@H]2[C@H](CCn3cc([C@H](O)c4ccccc4)nn3)O[C@@]3(C(=O)N(Cc4cccc(N5CCOC5=O)c4)c4ccccc43)[C@@H]2C)cc1"
assay_result = 0.0133

[[record]]
compound = "CCOC(=O)[C@H]1CC=C2CC1C(=O)N1CCC[C@@H]1[C@@H]2O[Si](C)(C)C(C)(C)C (some centres not stated)"
assay_result = -0.17

[[record]]
compound = "COCCOC(=O)N1C(=O)[C@@]2(c3cc(C#CCCO)ccc31)[C@H](C(=O)Nc1nc3ccccc3s1)[C@H]1C(=O)O[C@H](c3ccccc3)[C@H](c3ccccc3)N1[C@@H]2c1ccc(OCCO)cc1"
assay_result = 0.215

[[record]]
compound = "COC(=O)c1c(CC[C@@H](CO)NC(=O)N2CCC[C@H]2Cn2cc(-c3ccccn3)nn2)oc(C(C)=O)c1C(=O)OC"
assay_result = 0.835

[[record]]
compound = "COC(=O)[C@@]1(Cc2ccccc2)[C@H]2c3cc(C(=O)N4CCCC4)n(Cc4nc5ccccc5[nH]4)c3C[C@H]2CN1C(=O)c1ccccc1"
assay_result = -1.1

[[record]]
compound = "CN(C)CCCC[C@@H]1NC(=O)[C@H]2C[C@@H](C(=O)NCCCCCNC(=O)CS)[C@@H](c3cccc(OCCO)c3)N2C1=O"
assay_result = -0.32

[[record]]
compound = "C[C@@H]1ON(c2cccc(C(=O)OC(C)(C)C)c2)[C@H](c2ccc(Br)cc2)[C@H]1C(=O)N1C(=O)OC[C@H]1Cc1ccccc1"
assay_result = -0.472

[[record]]
compound = "CC(C)c1ccc(NN2C(C(O)c3cc(C(F)(F)F)cc(C(F)(F)F)c3)C=CC3C(=O)N(c4ccccc4)C(=O)C32)cc1 (configuration not stated)"
assay_result = -0.729

[[record]]
compound = "CN(C)C(=O)[C@@]1(Cc2ccccc2CN=[N+]=[N-])N=C(c2ccc(OCCCO)cc2)O[C@H]1c1ccccc1"
assay_result = 0.0743

[[record]]
compound = "C=CCC(OC(C)=O)[C@@H]1[C@@H](N(Cc2ccc(-c3cccc(C(F)(F)F)c3)o2)C(=O)c2ccc(-c3ccccc3)cc2)c2cc(OCCCO)ccc2N1C(=O)c1ccc(-c2ccccc2)cc1 (some centres not stated)"
assay_result = -0.487

[[record]]
compound = "COC(=O)[C@@]1(Cc2ccc(OC)cc2)[C@H]2c3cc(C(=O)N(C)C)n(Cc4cccc5ccccc45)c3C[C@H]2CN1C(=O)c1ccccc1"
assay_result = -0.999

[[record]]
compound = "CC(C)(C)OC(=O)CC[C@@]12N=C(c3ccc(OCCCO)cc3)O[C@@H]1c1ccccc1N(CCS(=O)(=O)c1ccccc1)C2=O"
assay_result = 1.56

[[record]]
compound = "COc1ccc(C(=O)Nc2ccc(CN3C(=O)[C@@]4(O[C@@H](CC(=O)N5CCC[C@H]5CO)[C@H]([Si](C)(C)c5ccc(OC)cc5)[C@H]4C)c4ccccc43)cc2)cc1"
assay_result = 1.26

[[record]]
compound = "N#Cc1ccc(NN2C(C(O)c3c(F)cccc3Cl)C=CC3C(=O)N(c4ccccc4)C(=O)C32)cc1 (configuration not stated)"
assay_result = -0.445

[[record]]
compound = "C=CCN1C(=O)[C@@]2(O[C@@H](CCO)[C@H]([Si](C)(C)c3ccc(OC)cc3)[C@H]2C)c2cc(NC(=O)c3ccc(OC)cc3)ccc21"
assay_result = 0.586

[[record]]
compound = "CC1(C)[C@@H]2CC(C(O)C3C=CC4C(=O)N(c5ccccc5)C(=O)C4N3Nc3ccccc3)=C[C@H]1C2 (some centres not stated)"
assay_result = -0.328

[[record]]
compound = "COc1ccc(CCN2C(=O)[C@@]3(Cc4ccccc42)c2ccccc2C(=O)N(Cc2ccccc2C(F)(F)F)[C@H]3c2ccc(CO)cc2)cc1"
assay_result = -0.374

